Target: LXRβ (Homo sapiens)
Construct: Co-transfection expression plasmids, comprising full-length LXRα (pCMX-h LXRα[…] or LXRβ (pCMX-hLXRβ))
Sequence (P55055 whole entry): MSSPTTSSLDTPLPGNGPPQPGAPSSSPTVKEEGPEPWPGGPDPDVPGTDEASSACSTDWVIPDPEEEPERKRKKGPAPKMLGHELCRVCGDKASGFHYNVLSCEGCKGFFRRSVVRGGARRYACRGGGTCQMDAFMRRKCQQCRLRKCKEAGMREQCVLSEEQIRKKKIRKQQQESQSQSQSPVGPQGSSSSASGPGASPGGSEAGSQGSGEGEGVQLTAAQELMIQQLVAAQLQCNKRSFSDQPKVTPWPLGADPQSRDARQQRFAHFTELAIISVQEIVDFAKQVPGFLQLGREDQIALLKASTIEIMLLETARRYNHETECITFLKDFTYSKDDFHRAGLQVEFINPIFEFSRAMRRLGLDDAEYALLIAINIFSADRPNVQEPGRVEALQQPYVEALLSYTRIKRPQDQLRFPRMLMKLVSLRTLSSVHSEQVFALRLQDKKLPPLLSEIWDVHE
Sequence (P19793 whole entry partner): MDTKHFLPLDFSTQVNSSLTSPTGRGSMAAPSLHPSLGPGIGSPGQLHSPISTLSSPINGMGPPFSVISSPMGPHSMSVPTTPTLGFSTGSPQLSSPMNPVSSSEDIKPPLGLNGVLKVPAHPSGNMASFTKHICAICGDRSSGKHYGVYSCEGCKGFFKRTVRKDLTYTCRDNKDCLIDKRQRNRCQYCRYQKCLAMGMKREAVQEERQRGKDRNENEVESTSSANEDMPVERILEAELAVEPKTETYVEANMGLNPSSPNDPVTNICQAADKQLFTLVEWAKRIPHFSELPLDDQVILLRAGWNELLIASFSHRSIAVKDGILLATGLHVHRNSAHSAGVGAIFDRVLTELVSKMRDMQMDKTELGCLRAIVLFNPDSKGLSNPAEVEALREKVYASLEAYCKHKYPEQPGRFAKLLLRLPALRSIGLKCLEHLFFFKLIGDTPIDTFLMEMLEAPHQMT
Test: Co-transfection assay (LXRE luciferase reporter), LXRβ
Conditions: CV-1 cells transfected with pCMX-hLXRβ and LXREx1-Tk-Luciferase; 20 hours incubation
pEC50: −log10 of the molar value.
Reported pEC50 values for a set of compounds
measure_name: pEC50

                                    compound  obs_value
 0  CCS(=O)(=O)c1cccc(-c2ccc(-n3cc(C(F)F)nc3C)c(-n3nncc3C(C)c3ccc(Cl)cc3)c2)c1 (centres unmarked) [Example 131]       6.09
 1  Cc1nc(C(F)(F)F)cn1-c1ccc(-c2cc(F)c(CO)c(S(C)(=O)=O)c2)cc1-c1nc(C2CC2)cn1-c1ccc2c(c1)OC(F)(F)O2 [Example 639]       6.89
 2  Cc1nc(Cl)cn1-c1ccc(-c2cccc(S(C)(=O)=O)c2)cc1-n1nncc1-c1ccc(Cl)cc1 [Example 150]       5.89
 3  CCS(=O)(=O)c1cccc(-c2ccc(-n3cc(C(C)(F)F)nc3C)c(-n3nncc3-c3ccc(OC(F)(F)F)cc3)c2)c1 [Example 177]       6.05
 4  Cc1nc(-c2cc(-c3cc(F)c(CO)c(S(C)(=O)=O)c3)ccc2-n2cc(C(F)(F)F)nc2C)c(-c2cccc(Cl)n2)o1 [Example 427]       6.84
 5  Cc1nc(C(F)(F)F)cn1-c1ccc(-c2cccc(S(C)(=O)=O)c2)cc1-n1nncc1-c1ccc(F)cc1 [Example 43]       5.94
 6  COc1ncc(-c2oc(C)nc2-c2cc(-c3cccc(S(C)(=O)=O)c3)ccc2-n2cc(C(F)(F)F)nc2C)cn1 [Example 414]       6.18
 7  Cc1nc(C(F)(F)F)cn1-c1ccc(-c2cccc(S(C)(=O)=O)c2)cc1-n1nncc1C(=O)c1ccc(C(F)(F)F)cc1 [Example 138]       5.89
 8  Cc1nc(C(F)(F)F)cn1-c1ccc(-c2cc(F)c(CO)c(S(C)(=O)=O)c2)cc1-c1ocnc1-c1ccc(Cl)cc1 [Example 355]       6.98
 9  Cc1nc(C(F)(F)F)cn1-c1ccc(-c2cccc(S(C)(=O)=O)c2)cc1-n1nncc1CCc1ccc(Cl)cc1 [Example 129]       5.82
10  Cc1nc(C(F)(F)F)cn1-c1ccc(-c2cccc(S(C)(=O)=O)c2)cc1-n1nncc1Cc1ccc(F)cc1 [Example 124]       5.94
11  Cc1nc(-c2cc(-c3cc(F)c(CO)c(S(C)(=O)=O)c3)ccc2-n2cc(Cl)nc2C)c(-c2ccc(OC(F)F)c(F)c2)o1 [Example 467]       7.18
12  Cc1nc(-c2cc(-c3cc(F)c(CO)c(S(C)(=O)=O)c3)ccc2-n2cc(C(F)(F)F)nc2C)c(-c2ccc(SC(F)(F)F)cc2)o1 [Example 543]       7.17
13  Cc1nc(C(F)(F)F)cn1-c1ccc(-c2cc(F)c(CO)c(S(C)(=O)=O)c2)cc1-c1nc(C(F)(F)F)cn1-c1ccc(Cl)cc1 [Example 645]       6.84
